# IC50 measurements, system: p38 MAPKα (Homo sapiens (Human))
# Sequence (Q16539 whole entry): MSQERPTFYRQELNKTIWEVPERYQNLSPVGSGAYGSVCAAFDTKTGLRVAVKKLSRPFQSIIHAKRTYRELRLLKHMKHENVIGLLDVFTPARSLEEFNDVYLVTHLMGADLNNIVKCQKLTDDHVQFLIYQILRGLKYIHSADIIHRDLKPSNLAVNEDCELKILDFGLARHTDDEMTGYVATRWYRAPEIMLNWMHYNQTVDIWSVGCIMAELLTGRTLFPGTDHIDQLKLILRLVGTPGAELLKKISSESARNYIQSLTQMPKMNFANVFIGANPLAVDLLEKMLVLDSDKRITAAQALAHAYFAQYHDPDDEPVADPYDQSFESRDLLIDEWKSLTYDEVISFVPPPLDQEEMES
Lab book: enter the figure in nM, no units written.

# value lookup — system p38 MAPKα (Homo sapiens (Human)), readout IC50, item COCCOCCOCCOc1cc(Nc2nccc(Oc3ccc(NC(=O)Nc4cc(C(C)(C)C)nn4-c4ccc(C)cc4)c4ccccc34)n2)cc(OC)c1
153

Would you kindly repeat that for COCCOCCOCCOCCOCCOCCOCCOc1cc(Nc2nccc(Oc3ccc(NC(=O)Nc4cc(C(C)C)nn4-c4ccc(C)cc4)c4ccccc34)n2)cc(OC)c1 ?
11

Would you kindly repeat that for COc1cc(Nc2nccc(Oc3ccc(NC(=O)Nc4cc(C(C)(C)C)nn4-c4ccc(C)cc4)c4ccccc34)n2)cc(OCCCN2CCOCC2)c1 ?
175

Would you kindly repeat that for COc1cc(Nc2nccc(Oc3ccc(NC(=O)Nc4cc(C(C)(C)C)nn4-c4ccc(OC)nc4)c4ccccc34)n2)cc(S(=O)(=O)C2CC2)c1 ?
301

Would you kindly repeat that for COc1ccc(-n2nc(C(C)(C)C)cc2NC(=O)Nc2ccc(Oc3ccnc(Nc4cccc(OS(C)(=O)=O)c4)n3)c3ccccc23)cn1 ?
28

Would you kindly repeat that for COCCOCCOCCOc1cc(Nc2nccc(Oc3ccc(NC(=O)Nc4cc(C(C)(C)C)nn4-c4ccc(N(C)C)cc4)c4ccccc34)n2)cc(OC)c1 ?
187
